The origin of these recorded values is patent US6111103A.

- assay comment: UV/Vis absorption (λmax, ε)
- Format: physicochemical
- Parameters: unit not given beside the values
- measurement context: EtOH
parameter: ε at λmax
Answer with a bare number; do not write a unit.

// ε at λmax lookup, key: `CCOc1nc(-c2ccc(O)cc2O)nc(-c2ccc(O)cc2O)n1` 36761

Input CCCCCCCCC(CCCCCC)COc1nc(-c2ccc(O)cc2O)nc(-c2ccc(O)cc2O)n1 (stereo not shown) 36148

Input CCCCC(CC)COc1nc(-c2ccc(O)cc2O)nc(-c2ccc(O)cc2O)n1 (stereo not shown) 39177

Input `CCCCCCCCCCCCCCCCCCOc1nc(-c2ccc(O)cc2O)nc(-c2ccc(O)cc2O)n1` 31662

Input CCCCCCCCC(CCCCCC)COc1nc(-c2ccc(OC)cc2O)nc(-c2ccc(OC)cc2O)n1 (stereo not shown) 34123

Input CCCCCCCCCCCCC(CCCCCCCCCC)COc1nc(-c2ccc(O)cc2O)nc(-c2ccc(O)cc2O)n1 (stereo not shown) 34482

Input `COc1nc(-c2ccc(O)cc2O)nc(-c2ccc(O)cc2O)n1` 36949

---

- assay comment: UV/Vis absorption (λmax, ε)
- Assay type: physicochemical
- measurement context: EtOH
parameter: UV/Vis λmax (nm)
Respond numerically; units are nm and should not be typed.

// UV/Vis λmax lookup, key: `CCOc1nc(-c2ccc(O)cc2O)nc(-c2ccc(O)cc2O)n1` 350

Input `COc1nc(-c2ccc(O)cc2O)nc(-c2ccc(O)cc2O)n1` 350

Input CCCCCCCCC(CCCCCC)COc1nc(-c2ccc(O)cc2O)nc(-c2ccc(O)cc2O)n1 (stereo not shown) 351

Input `CCCCCCCCCCCCCCCCCCOc1nc(-c2ccc(O)cc2O)nc(-c2ccc(O)cc2O)n1` 350

Input CCCCCCCCCCCCC(CCCCCCCCCC)COc1nc(-c2ccc(O)cc2O)nc(-c2ccc(O)cc2O)n1 (stereo not shown) 350

Input CCCCC(CC)COc1nc(-c2ccc(O)cc2O)nc(-c2ccc(O)cc2O)n1 (stereo not shown) 350

Input CCCCCCCCC(CCCCCC)COc1nc(-c2ccc(OC)cc2O)nc(-c2ccc(OC)cc2O)n1 (stereo not shown) 348
